These entries and their values trace back to ChEMBL document CHEMBL1961873.

Consider the following molecules; for each one, report its inhibition.
# System tested: CDK3/Cyclin E (Homo sapiens) (UniProt P24864+Q00526);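 note: each figure is a mean percent inhibition of the CDK3/cyclin E complex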
# Sequence (P24864 whole entry, looked up): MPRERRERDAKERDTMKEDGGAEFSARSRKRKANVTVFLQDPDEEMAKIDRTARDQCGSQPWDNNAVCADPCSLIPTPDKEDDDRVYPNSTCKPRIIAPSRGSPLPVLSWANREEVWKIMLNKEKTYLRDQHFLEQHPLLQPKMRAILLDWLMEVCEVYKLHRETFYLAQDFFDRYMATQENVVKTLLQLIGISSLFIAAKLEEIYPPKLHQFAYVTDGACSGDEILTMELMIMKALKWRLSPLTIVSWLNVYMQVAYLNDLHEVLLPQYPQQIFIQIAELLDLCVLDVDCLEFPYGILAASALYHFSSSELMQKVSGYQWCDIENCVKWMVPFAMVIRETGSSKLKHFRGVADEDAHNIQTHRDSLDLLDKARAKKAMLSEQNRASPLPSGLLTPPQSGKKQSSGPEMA
# Sequence (Q00526 whole entry, looked up): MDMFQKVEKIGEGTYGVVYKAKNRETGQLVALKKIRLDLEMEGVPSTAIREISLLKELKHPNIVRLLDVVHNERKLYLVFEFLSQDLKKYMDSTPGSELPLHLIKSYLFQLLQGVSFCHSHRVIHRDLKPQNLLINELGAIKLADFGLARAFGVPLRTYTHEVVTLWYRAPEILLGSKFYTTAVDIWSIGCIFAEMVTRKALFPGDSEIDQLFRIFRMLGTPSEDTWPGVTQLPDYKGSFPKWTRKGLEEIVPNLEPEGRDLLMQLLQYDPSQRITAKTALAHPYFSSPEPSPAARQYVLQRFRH
# Condition description: at 1 µM
Give the number; % is assumed, so skip it.

For CC(C)c1ccc(Nc2nccc(-c3cnn4ncccc34)n2)cc1 , what is its reported inhibition?
39

For NS(=O)(=O)c1cccc(-c2cc3ccncc3cc2OCc2ccccc2)c1 , what is its reported inhibition?
0.51

For CCS(=O)(=O)c1ccc(OC)c(Nc2nccc(N(C)c3ccc4c(C)n[nH]c4c3)n2)c1 , what is its reported inhibition?
-2.55

For COc1cc2ncnc(Nc3ccc(C)c(O)c3)c2cc1OC , what is its reported inhibition?
-1.71

For CN(C)c1cc2c(Nc3ccc4c(cnn4Cc4ccccc4)c3)ncnc2cn1 , what is its reported inhibition?
-0.2

For CCOc1nccc2c1nc(-c1nonc1N)n2CC , what is its reported inhibition?
-0.38

For CN(C)C(=O)O[C@H]1CN[C@H](C#Cc2cc3ncnc(Nc4ccc(OCc5cccc(F)c5)c(Cl)c4)c3s2)C1 , what is its reported inhibition?
-2.05

For NS(=O)(=O)c1ccc(-c2cc3ccncc3cc2OCc2ccccc2)cc1 , what is its reported inhibition?
-0.11

For COc1ccc(-c2nn3ncccc3c2-c2ccnc(Nc3cccc(C(F)(F)F)c3)n2)cc1 , what is its reported inhibition?
-2.93

For Cc1ccc2c(-c3ccnc(Nc4ccc5c(c4)OCCO5)n3)c(-c3ccc(C(F)(F)F)cc3)nn2n1 , what is its reported inhibition?
-3.94
